studyTarget: T1, recombinant human IL-4 (human, UniProt P05112 25-153)
T1 sequence (looked up): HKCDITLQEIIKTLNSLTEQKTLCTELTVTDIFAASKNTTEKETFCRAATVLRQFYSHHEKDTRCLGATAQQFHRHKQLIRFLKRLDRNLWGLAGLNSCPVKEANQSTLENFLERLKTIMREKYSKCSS
runDescription: cell-based or functional assay
valueType: IC50, inhibition of IL-4 induced TF-1 cell proliferation (pM)

chimeric anti-IL-4 clone 8D4-8 monoclonal antibody (antibody, V domains shown, Murine variable domains fused to IGHG1 and IGKC; also called ch8D4-8 WT; chimeric 8D4-8) VH: QVQLQQSGPQLVRPGTSVKISCKASGYSFTSYWIHWIKQRPGQGLEWIGMIDPSDGETRLNQRFKDRATLTVDRSSSTAYMQLRSPTSEDSALYYCTRLKEYGNYDSFYFDVWGAGTTVTVSS VL: DIQMNQSPASLSVSLGDTITLTCHASQNIDVWLSWFQQSPGNIPKLLIYKASNLHTGVPSRFSGSGSGTGFTLTISSLQPEDIATYYCQQAHSYPFTFGGGTKLEIK    84
